Hello, the source for this data is paper PMC6081406, in case you need it.

TARGET SYSTEM: GABAAR-α2 loop truncation α2-335St (AA 307-334)
ASSAY TEXT: ITC; CB-SH3 titrated against the GABAAR α-subunit loops and truncated α2 constructs; purified proteins
pKd: −log10 of the molar value.
ATTRIBUTE MEASURED: pKd

pKd reported for this binder SH3 domain of collybistin (CB-SH3), Q3UTH8 4-72 (domain or fragment) LITGDSIVSAEAVWDHVTMANRELAFKAGDVIKVLDASNKDWWWGQIDDEEGWFPASFVRLWVNQEDGV : < 3.30
